- TESTED ON: T1, VLP2 (virus-like particles of AAV2) (AAV2, UniProt P03135 1-735; P03135 1-598; P03135 1-533)
- T1 construct: Empty AAV2 capsid; background says about 60 protein molecules, VP1:VP2:VP3 = 1:1:10; Immobilised on the ELISA plate
- T1 sequence (P03135 whole entry, chain 1 of 3): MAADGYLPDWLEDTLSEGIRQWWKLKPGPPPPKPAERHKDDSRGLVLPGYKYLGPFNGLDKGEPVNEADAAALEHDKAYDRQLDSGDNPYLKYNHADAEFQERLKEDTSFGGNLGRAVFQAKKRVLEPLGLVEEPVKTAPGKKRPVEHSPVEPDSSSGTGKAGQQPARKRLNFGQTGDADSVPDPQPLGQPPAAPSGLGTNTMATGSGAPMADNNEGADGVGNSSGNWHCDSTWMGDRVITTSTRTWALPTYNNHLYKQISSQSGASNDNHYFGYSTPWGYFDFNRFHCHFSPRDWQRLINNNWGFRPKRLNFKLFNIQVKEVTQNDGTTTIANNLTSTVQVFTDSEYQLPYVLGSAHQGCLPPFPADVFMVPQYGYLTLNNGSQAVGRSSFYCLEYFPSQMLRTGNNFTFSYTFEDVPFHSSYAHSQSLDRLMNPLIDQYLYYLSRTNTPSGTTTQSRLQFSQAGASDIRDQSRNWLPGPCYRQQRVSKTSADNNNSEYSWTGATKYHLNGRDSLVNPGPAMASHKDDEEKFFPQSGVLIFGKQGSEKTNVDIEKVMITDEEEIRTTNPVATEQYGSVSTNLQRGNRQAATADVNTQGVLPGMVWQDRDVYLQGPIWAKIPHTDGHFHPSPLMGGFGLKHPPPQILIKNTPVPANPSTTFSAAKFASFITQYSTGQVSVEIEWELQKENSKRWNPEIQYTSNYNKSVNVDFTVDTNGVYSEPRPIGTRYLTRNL
- T1 sequence (P03135 139-735, tags left off, chain 2 of 3): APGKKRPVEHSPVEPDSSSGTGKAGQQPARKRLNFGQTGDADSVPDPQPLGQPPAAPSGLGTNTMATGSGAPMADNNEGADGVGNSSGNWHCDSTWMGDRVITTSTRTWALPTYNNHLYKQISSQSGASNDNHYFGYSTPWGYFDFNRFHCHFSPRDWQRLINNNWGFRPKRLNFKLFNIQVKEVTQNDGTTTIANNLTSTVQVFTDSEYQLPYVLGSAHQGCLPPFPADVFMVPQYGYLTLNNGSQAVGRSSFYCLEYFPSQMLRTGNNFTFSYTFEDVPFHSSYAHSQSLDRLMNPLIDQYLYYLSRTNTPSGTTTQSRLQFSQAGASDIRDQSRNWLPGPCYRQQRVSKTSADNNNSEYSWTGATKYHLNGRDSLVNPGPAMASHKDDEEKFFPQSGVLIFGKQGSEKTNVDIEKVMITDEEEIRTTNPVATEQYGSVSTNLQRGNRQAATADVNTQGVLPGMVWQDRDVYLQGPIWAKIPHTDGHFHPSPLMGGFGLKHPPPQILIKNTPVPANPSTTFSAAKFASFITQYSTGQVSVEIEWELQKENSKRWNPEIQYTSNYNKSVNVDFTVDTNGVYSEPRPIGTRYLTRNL
- T1 sequence (P03135 203-735, chain 3 of 3): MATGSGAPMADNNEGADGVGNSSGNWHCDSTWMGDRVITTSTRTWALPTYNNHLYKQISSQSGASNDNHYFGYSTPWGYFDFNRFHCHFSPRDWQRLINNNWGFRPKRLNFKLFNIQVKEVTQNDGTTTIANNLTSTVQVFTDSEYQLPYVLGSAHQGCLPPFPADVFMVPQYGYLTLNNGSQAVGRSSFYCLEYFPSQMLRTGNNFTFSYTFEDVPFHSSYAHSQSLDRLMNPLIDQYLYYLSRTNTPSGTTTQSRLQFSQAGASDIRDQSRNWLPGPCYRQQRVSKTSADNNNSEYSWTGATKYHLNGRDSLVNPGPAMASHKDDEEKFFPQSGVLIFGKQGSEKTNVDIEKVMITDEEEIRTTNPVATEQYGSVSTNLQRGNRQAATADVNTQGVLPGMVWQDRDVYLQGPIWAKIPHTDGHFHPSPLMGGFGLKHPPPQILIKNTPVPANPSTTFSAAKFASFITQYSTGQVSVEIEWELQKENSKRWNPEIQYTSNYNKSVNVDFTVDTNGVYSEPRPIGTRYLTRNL
- TEST SUMMARY: ELISA on VLP2; binding after pH 10.0 41.2°C 15 min / untreated
I'd appreciate it if you could supply Residual activity [%] values for the items below.
Answer in %, number only, no unit symbol.

Reported Residual activity [%], binder AAV-binding protein No. 113 (AVR8g + Ile366Thr) (receptor) MGSAGESDQITLPKNEVQLNAYVLQEPPKGETCTYDWQLITHPRDYSGEMEGEHSQTLKLSNLTPGLYEFKVIVEGQNAHSEGYVNVTVEPEPRKNRPPIAIVSPQFQEISLPTTSTVIDGSQSTDDDKIVQYHWEELKGPLREEKISEDTAILKLSKLVPGNYTFRLTVVDSDGATDSTTANLTVNKAVDHHHHHH : ____
41.4

Now consider AAV-binding protein No. 116 (AVR8g + Thr373Ala) (receptor) MGSAGESDQITLPKNEVQLNAYVLQEPPKGETCTYDWQLITHPRDYSGEMEGEHSQILKLSNLAPGLYEFKVIVEGQNAHSEGYVNVTVEPEPRKNRPPIAIVSPQFQEISLPTTSTVIDGSQSTDDDKIVQYHWEELKGPLREEKISEDTAILKLSKLVPGNYTFRLTVVDSDGATDSTTANLTVNKAVDHHHHHH .
57.8

Subsequent entry: AAV-binding protein No. 126 (AVR8g + Lys448Glu) (receptor) MGSAGESDQITLPKNEVQLNAYVLQEPPKGETCTYDWQLITHPRDYSGEMEGEHSQILKLSNLTPGLYEFKVIVEGQNAHSEGYVNVTVEPEPRKNRPPIAIVSPQFQEISLPTTSTVIDGSQSTDDDKIVQYHWEELEGPLREEKISEDTAILKLSKLVPGNYTFRLTVVDSDGATDSTTANLTVNKAVDHHHHHH
34.5

Check AAV-binding protein No. 104 (AVR8g + Tyr344Phe) (receptor) MGSAGESDQITLPKNEVQLNAYVLQEPPKGETCTFDWQLITHPRDYSGEMEGEHSQILKLSNLTPGLYEFKVIVEGQNAHSEGYVNVTVEPEPRKNRPPIAIVSPQFQEISLPTTSTVIDGSQSTDDDKIVQYHWEELKGPLREEKISEDTAILKLSKLVPGNYTFRLTVVDSDGATDSTTANLTVNKAVDHHHHHH too.
40.3

Field entry: AAV-binding protein No. 106 (AVR8g + Tyr355Cys) (receptor) MGSAGESDQITLPKNEVQLNAYVLQEPPKGETCTYDWQLITHPRDCSGEMEGEHSQILKLSNLTPGLYEFKVIVEGQNAHSEGYVNVTVEPEPRKNRPPIAIVSPQFQEISLPTTSTVIDGSQSTDDDKIVQYHWEELKGPLREEKISEDTAILKLSKLVPGNYTFRLTVVDSDGATDSTTANLTVNKAVDHHHHHH
63.8

AAV-binding protein No. 120 (AVR8g + Lys380Glu) (receptor) MGSAGESDQITLPKNEVQLNAYVLQEPPKGETCTYDWQLITHPRDYSGEMEGEHSQILKLSNLTPGLYEFEVIVEGQNAHSEGYVNVTVEPEPRKNRPPIAIVSPQFQEISLPTTSTVIDGSQSTDDDKIVQYHWEELKGPLREEKISEDTAILKLSKLVPGNYTFRLTVVDSDGATDSTTANLTVNKAVDHHHHHH , same question.
59.5
